Origin of the recorded values: paper PMC9516332

target: panel of 255 wild-type kinases (Homo sapiens, UniProt Q07912); assay: Kinase panel profiling at 1 µmol/L (MSA or IMAP), percentage inhibition; type: biochemical; settings: ACK kinase assay; 1 µmol/L single concentration; read-out: %-inhibition ACK
Sequence (Q07912 whole entry): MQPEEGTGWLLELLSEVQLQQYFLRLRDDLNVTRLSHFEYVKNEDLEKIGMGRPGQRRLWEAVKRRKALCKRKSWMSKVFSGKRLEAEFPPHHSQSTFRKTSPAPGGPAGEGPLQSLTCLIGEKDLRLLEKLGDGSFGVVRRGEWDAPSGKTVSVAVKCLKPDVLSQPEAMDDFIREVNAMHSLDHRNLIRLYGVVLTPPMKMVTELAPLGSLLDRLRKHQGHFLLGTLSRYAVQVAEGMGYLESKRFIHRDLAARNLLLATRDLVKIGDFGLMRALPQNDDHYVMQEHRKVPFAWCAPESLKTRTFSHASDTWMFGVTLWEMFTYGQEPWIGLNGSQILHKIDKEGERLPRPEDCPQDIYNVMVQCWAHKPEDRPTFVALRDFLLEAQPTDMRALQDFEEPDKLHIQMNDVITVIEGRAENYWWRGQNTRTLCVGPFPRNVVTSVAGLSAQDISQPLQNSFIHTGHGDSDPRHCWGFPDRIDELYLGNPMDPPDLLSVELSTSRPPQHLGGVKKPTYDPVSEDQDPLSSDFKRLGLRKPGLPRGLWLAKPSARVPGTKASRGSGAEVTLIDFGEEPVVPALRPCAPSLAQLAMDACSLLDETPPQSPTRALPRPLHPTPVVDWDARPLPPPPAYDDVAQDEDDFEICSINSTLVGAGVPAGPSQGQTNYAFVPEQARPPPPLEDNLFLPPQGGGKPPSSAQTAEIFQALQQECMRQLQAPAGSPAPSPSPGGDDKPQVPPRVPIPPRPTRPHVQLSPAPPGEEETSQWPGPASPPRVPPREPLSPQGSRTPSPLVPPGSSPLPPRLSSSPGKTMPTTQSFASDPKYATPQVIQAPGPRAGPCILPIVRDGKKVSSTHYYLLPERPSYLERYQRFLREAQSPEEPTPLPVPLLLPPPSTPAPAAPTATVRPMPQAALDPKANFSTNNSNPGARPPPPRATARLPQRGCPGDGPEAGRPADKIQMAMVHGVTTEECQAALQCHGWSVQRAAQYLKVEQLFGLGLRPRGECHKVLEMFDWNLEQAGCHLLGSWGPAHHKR
Respond with Satisfied for inhibition at 1 µM values of 10% and above, Not satisfied for values below.

Example entries and their recorded answers appear below.
COMPOUND: COc1cc2ncnc(Nc3ccc(F)c(Cl)c3)c2cc1NC(=O)/C=C/CN1CCCCC1 [dacomitinib]
TARGET_SYSTEM: panel of 255 wild-type kinases (Homo sapiens, UniProt Q07912)
ASSIGNED_CLASS: Satisfied

COMPOUND: FC(F)(F)c1ccc(CNc2ccc(Cc3c[nH]c4ncc(Cl)cc34)cn2)cn1 [pexidartinib]
TARGET_SYSTEM: panel of 255 wild-type kinases (Homo sapiens, UniProt Q07912)
ASSIGNED_CLASS: Satisfied

COMPOUND: Cn1cnc2c(F)c(Nc3ccc(Br)cc3F)c(C(=O)NOCCO)cc21 [binimetinib]
TARGET_SYSTEM: panel of 255 wild-type kinases (Homo sapiens, UniProt Q07912)
ASSIGNED_CLASS: Not satisfied

COMPOUND: Cn1cnc2c(F)c(Nc3ccc(Br)cc3Cl)c(C(=O)NOCCO)cc21 [selumetinib]
TARGET_SYSTEM: panel of 255 wild-type kinases (Homo sapiens, UniProt Q07912)
ASSIGNED_CLASS: Not satisfied

Is reported inhibition at 1 µM greater than or equal to 10% here: CCN1C(=O)N(c2c(F)c(OC)cc(OC)c2F)Cc2cnc3[nH]c(CN4CCOCC4)cc3c21 [pemigatinib]
Not satisfied

What do we get for CCn1c(=O)c(-c2cc(NC(=O)Nc3ccccc3)c(F)cc2Br)cc2cnc(NC)cc21 [ripretinib] ?
Satisfied

###

Please provide measured inhibition at 1 µM for the entries that follow.
target: panel of 255 wild-type kinases (Homo sapiens); assay: Kinase panel profiling at 1 µmol/L (MSA or IMAP), percentage inhibition; format: biochemical; conditions: kinase DDR1; 1 µmol/L single concentration; read-out: %-inhibition at 1 µmol/L, DDR1
Answers are plain numbers, in %.

COMPOUND: CN1CCN(c2ccc(C(=O)Nc3n[nH]c4ccc(Cc5cc(F)cc(F)c5)cc34)c(NC3CCOCC3)c2)CC1 [entrectinib]
TARGET_SYSTEM: panel of 255 wild-type kinases (Homo sapiens)
inhibition at 1 µM, %: 99
--
COMPOUND: FC(F)(F)c1ccc(CNc2ccc(Cc3c[nH]c4ncc(Cl)cc34)cn2)cn1 [pexidartinib]
TARGET_SYSTEM: panel of 255 wild-type kinases (Homo sapiens)
inhibition at 1 µM, %: 84

Quick request: inhibition at 1 µM for each listed item, please.
1. Cn1cnc2c(F)c(Nc3ccc(Br)cc3Cl)c(C(=O)NOCCO)cc21 [selumetinib]
2. CO[C@]1(C(=O)N[C@@H](C)c2ccc(-n3cc(F)cn3)nc2)CC[C@H](c2nc(C)cc(Nc3cc(C)[nH]n3)n2)CC1 [pralsetinib]
3. O=C(Nc1cnn2ccc(N3CCC[C@@H]3c3cc(F)ccc3F)nc12)N1CC[C@H](O)C1 [larotrectinib]

1. 4.73
2. 98
3. 41

Batch: inhibition at 1 µM for all items listed.
1. CCN1CCN(c2ccc(Nc3cc(N(C)C(=O)Nc4c(Cl)c(OC)cc(OC)c4Cl)ncn3)cc2)CC1 [infigratinib]
2. C=CC(=O)N1CCC([C@@H]2CCNc3c(C(N)=O)c(-c4ccc(Oc5ccccc5)cc4)nn32)CC1 [zanubrutinib]

96
3
